Each recorded value in this set is attributed to PubChem BioAssay (NCI).

# method notes: NCI Yeast Anticancer Drug Screen. Data for the bub3 strain (AID 167)
# cond: S. cerevisiae bub3 mutant strain, at 50.0 µM, active compounds read high
About 79,000 compounds went through this panel and 15% of them were active in at least one assay; those are over-represented in the sample as a whole.
readout type: growth inhibition (%)
Answer with a number only, understood to be in %.

compound	growth inhibition, %
FC(F)(F)c1cccc(NC2=NCCS2)c1	17.9
C/C=C/C(=O)[O-].C/C=C/C(=O)[O-].N.N.N.N.[Co+3].[O-][Cl+3]([O-])([O-])[O-]	7.3
O=C(c1ccccc1)C1NC1c1ccccc1 (stereo not given)	19.8

Now take the following compound into account.
## Task Look up growth inhibition: CN(C)/N=C(\N)c1nnn(C)n1
## Result -11.2

---

# method notes: NCI Yeast Anticancer Drug Screen. Data for the cln2 rad14 strain (AID 165);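 further: 0% = growth equal to vehicle treated cultures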
# cond: S. cerevisiae cln2 rad14 strain, at 50.0 µM, active compounds read high
This is part of a sample that, as a whole, favours compounds with a hit. Of some 79,000 tested, about 15% had one in any assay.
Each entry below lists one item and its recorded growth inhibition value.
Answer with a number only, understood to be in %.

Solved entries:
molecule	unit descriptor	endpoint value
CC[N+]1(CC)CC[N+](CC)(CC)CC1 (tested in a mixture with another compound)	%	0.45
O=C1OC[C@@H]2Cc3c([nH]c4ccccc34)[C@@H](c3cc(O)c(O)c(O)c3)N12	%	7.4
CN(C)/N=C(\N)c1nnn(C)n1	%	-32.8
COc1ccc(/C=C/C=C2C(=O)NC(=S)NC2=O)cc1	%	11.2

## Task Look up growth inhibition: O=[N+]([O-])c1ccc(SSC(Cl)(Cl)Cl)cc1
## Result 13.4

## Task Look up growth inhibition: CC(C(=O)c1ccccc1)N(C)C (stereo unspecified)
## Result -50.4

## Task Look up growth inhibition: CC([NH-])C[NH-].CC([NH-])C[NH-].[Cl-].[Cl-].[Co+3].[O-][Cl+3]([O-])([O-])O (stereo unspecified)
## Result 25.6

## Task Look up growth inhibition: CCCCCCCCCCCCCC(=O)O.[Pb]
## Result -0.65

## Task Look up growth inhibition: CC1CN1C1=C(Br)C(=O)C(N2CC2C)=C(Br)C1=O (stereo unspecified)
## Result -3.05

## Task Look up growth inhibition: CCOP(=O)(CCP(=O)(OCC)OCC)OCC.C[CH2][Sn]([Cl])([Cl])[CH2]C
## Result 46

## Task Look up growth inhibition: Clc1ccc(C(Cl)(Cl)Cl)c(Cl)c1
## Result -15.8

---

# method notes: NCI Yeast Anticancer Drug Screen. Data for the mec2-1 strain (AID 157)
# cond: S. cerevisiae mec2-1 strain, at 50.0 µM, active compounds read high
Compounds without any hit were thinned out: in the full panel of roughly 79,000, 15% have a hit.
readout type: growth inhibition (%)
Answer with a number only, understood to be in %.

## Task Look up growth inhibition: CN1C2CCC1[C@@H](COC(=O)c1ccccc1)[C@@H](O)C2 (stereo partly drawn)
## Result -14.6

## Task Look up growth inhibition: Cc1nc2ccccc2c(=O)n1-c1ccccc1Br
## Result -13.7

## Task Look up growth inhibition: N=c1nc(N)n2c(N)nc(=N)n12
## Result 12.7

## Task Look up growth inhibition: CC[N+]1(CC)CC[N+](CC)(CC)CC1 (tested in a mixture with another compound)
## Result -28.8

## Task Look up growth inhibition: COc1c2c(cc3c1OCO3)[C@]13C=C[C@H](OC)C[C@H]1N(C2)CC3O (stereo partly drawn)
## Result 5.75

## Task Look up growth inhibition: C1=CC2C=CC(C=C1)[PH+]2c1ccccc1.C1=CC2C=CC(C=C1)[PH+]2c1ccccc1.[C-]#[O+].[C-]#[O+].[C-]#[O+].[Fe] (stereo not drawn)
## Result 4.4

## Task Look up growth inhibition: C=CC1CC=CCC1 (stereo not drawn)
## Result -5.2

## Task Look up growth inhibition: O=P(N1CCCCCC1)(N1CC1)N1CC1
## Result 11
